- Test system: LXRb:RXRa (NR concentration 270 nM, RXRa partner concentration 90 nM)
- method: PBM binding z-score (relative to random genomic background probes); higher = stronger binding; sequences stand for … in GC…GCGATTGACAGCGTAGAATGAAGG
measure: PBM binding z-score
Form: value (number only, do not type unit).

Some solved entries appear below for comparison.
# primary.sequence, tested.on, PBM binding z-score
records = [
    ("CGTCCAAGGTCTTAGGAGGTCAGTGAAGACAGAT", "LXRb:RXRa (NR concentration 270 nM, RXRa partner concentration 90 nM)", 2.03),
    ("CCTGCTAGGTTATGGTCAGCTAATCTACAGTATG", "LXRb:RXRa (NR concentration 270 nM, RXRa partner concentration 90 nM)", -0.211),
    ("ACCTCTAGGTAAAGATAGTTCAGTGAATGCAAAT", "LXRb:RXRa (NR concentration 270 nM, RXRa partner concentration 90 nM)", 0.57),
]

Any idea what its PBM binding z-score is? The sequence is `TCTCGGAGGATACGAAGGTCAGAGCTTTCCAGAG` 0.653

Can you check `CAAACTTGGTCAAGAGGTCAAAGTCCGCTTCCCG` next? 5.04

Again, but for `CAAACTAGGTCACGAAAGGTTAAAGTCGAATGAC` 5.5

And what about the sequence `TAACCTAGGTCATTCAGGGGCCAGTATAGAAAGC` ? 3.98

What about this sequence? `AATACTGGGTCATCGTAGGCCAGAGTACGCACAG` 2.04

Here is the next sequence: `GCTAGCAGGCCATTTGGGTCACTCAGTGACGGGC` -0.133

Likewise for `ACTATTAGTTGAGACGAGGGTAACCGATAGGTTG` ? -0.182

Also `CGAACTAGTTCATCCAGGACAGTGAATACATTGA` ? 0.693

And what about the sequence `CCTGCCAGGTCATGGTCAGCTAATCTACAGTATG` ? 2.28

Another: `CAAACTAGGTCAAGAGGTCAAAATCCGCTTCCCG` 5.6

Can you handle `CCTAGTTGGTCAAGTTCACACACGCTATAGGTAC` next? 2.18

###

- Tested on: LXRb:RXRa (NR concentration 270 nM, RXRa partner concentration 90 nM)
- method: PBM binding z-score (relative to random genomic background probes); higher = stronger binding; sequences stand for … in GC…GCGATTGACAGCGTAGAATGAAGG
measure: PBM binding z-score
Write no unit; give the number alone.

Illustrative cases are given below, each with its answer.
# primary.sequence, measure, recorded.result
measured = [
    ("CCTAGTTGGTCAGCAGGTCACACACCGGATATGA", "PBM binding z-score", 2),
    ("TAGCCTAGGTCATGCGGGCCATTATAGTGTCGGC", "PBM binding z-score", 1.96),
    ("AGTCAAAGTTCATCTAGGTAACGTTAGATATGCT", "PBM binding z-score", 3.96),
    ("ACTCGGAGGACAAAAGTCAGAGCTACGCCAGTGA", "PBM binding z-score", -0.518),
]

Param item = `TAGCGTAGGTCATTGGGCCAGTATAGTACGCATC` ; retrieve measured PBM binding z-score. 2.84

And what about the sequence `GCTTACGGGTCGAAGGTTATAGCATGAATAGAAT` ? 2.51

// next record `TCATATAGGTAAAAGGTGAACGTCGGTGTGGTAA` 1.96

Again, but for `ACTTACGGGTCAACCAGGTTATAGCACGCGTATA` 4.26

Further, for `AATCAAAGTTCATCTAGGTAACGTAAGATATGCT` ? 4.15

Same question for `TCGAGTAGGTTAGGGGAATTCAGAATGGCGTCGA` please. 0.224

Record: `ACTAGTTGGTCAGCTGAGGTCTCACACAATTCGG` -0.188

Then this sequence: `CCTTACGGGTCACGAGGTTATTGCACGACGAGCG` 4.15

###

- System: LXRb:RXRa (NR concentration 270 nM, RXRa partner concentration 90 nM)
- method: PBM binding z-score (relative to random genomic background probes); higher = stronger binding; sequences stand for … in GC…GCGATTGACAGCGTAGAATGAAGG
Threshold rule: PBM binding z-score greater than or equal to 0.4 is 1.0; below that, 0.0.

Solved entries:
# primary.sequence, class
measured = [
    ("TCTGGTAGGTCAGTTGGTCAGCTAACGAGCTGCC", 1.0),
    ("TCTAGCAGGCCAGAGGGTCAGTCAAGAGGTACGG", 1.0),
    ("GCAGACAGGTGAAACGCAGGTAACTCACGGTGGC", 0.0),
    ("CCTCACGGGTCACGAGGTTATAGCACGACGAGCG", 1.0),
    ("TATGCTAGGTCAACGATGGTCAGCTAATCTGCTA", 1.0),
]

I'd appreciate it if you could say whether `GGTACAGGGTCAGCTAGAGGCCAGAGTATGGAAA` has PBM binding z-score at least equal to 0.4. 1.0

Input `TAGCCTAGGTCATTTAGGGGCCAGTATAGAAAGC` 1.0

Okay, and `TAGCCTATGTCATGGGCCAGTATACCACGCGAAC` ? 0.0

Next: `TAACCAAGGTGAGCTGAGGTCGTTGATCCAACTC` 0.0

Same question for `TATACAGGGTCAAGGGCCAGAGTACGAATGTCGA` please. 1.0

Would you mind doing `CTATCAAGGTGAACAAGGTCGTTGATTACTATTC` as well? 1.0

Same again, this time with `GTAGCAAGGTGAATAGGTCGTTGATGAGTAGGCG` 0.0

Now try `CATTACGGGTCACTCCAGGTTATAGCATCGGAGT` . 1.0

###

- Tested on: RARa homodimer (NR concentration 270 nM)
- method: PBM binding z-score (relative to random genomic background probes); higher = stronger binding; sequences stand for … in GC…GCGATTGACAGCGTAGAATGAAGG
Readings of PBM binding z-score for the listed sequences
Response field accepts a number only; no unit should be typed.

# primary.sequence, tested.on, measure, recorded.result
rows = [
    ("ACTAGCAGGCCAAGTTAGGGTCACTCAAACAAAG", "RARa homodimer (NR concentration 270 nM)", "PBM binding z-score", -0.482),
]

# PBM binding z-score lookup, item `TCGGACAGGTGAAGGTAACTCAGGTACGCAGTCG` 0.257

Another sequence to check: `TAATATAGGTAAACAGGTGAAAGTCCGTAAGTTA` 1.5

// next record `CAAACTAGGTCAAGCGGTCAAAGTCCGCTTCCCG` 0.747

`TTACCTAGGTGAGCTGAGGTCGTTGATCCAACTC` , same question. -1.28

Entry to check: `CCCAGTTGGTCAGGAGGTCACACACCGGATATGA` 1.81

Follow-up entry: `CCTTACGGATCAAGGTTATAGCACGGGTGGTACG` 1.03

And for `CAAACTAGGTCACACAGGTCAAAGTCCGTGCGTA` ? 0.759

Check `TAGCCTAGGTCATTGGGCGAGTATAGTACGCATC` too. -0.259

Another: `GCTTACGGGTCAAAGGTTATACCATGAATAGAAT` 0.701

###

- System: VDR:RXRa (NR concentration 270 nM, RXRa partner concentration 90 nM)
- method: PBM binding z-score (relative to random genomic background probes); higher = stronger binding; sequences stand for … in GC…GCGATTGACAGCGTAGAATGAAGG
Would you mind labelling by PBM binding z-score? At or over 3 is label 1, under is label 0.

Sample answers from the record:
# primary.sequence, class
data = [
    ("TAGCCTAGGTCAGATCAGGCCAGTATACGCTATA", "label 0"),
    ("GTACCAAGGTGAATTGGTCGTTGATGAGTAGGCG", "label 0"),
]

Does PBM binding z-score meet or surpass 3 for `ATCGAAAGGTCGAGGTGAGGATAGAGAAAGGGAA` ? label 0

Please answer likewise for `CAAACTAGGTCACCGGAAGGTCAAAGACCGCATG` label 1

Same question, `CATACAGGGTCAGCTAGTCCAGAGTAGGGACGGC` this time label 1

`AGAGTGAGGTTATTAAGATCAGGGAATTGCGGTC` ? label 0

Same lookup for `ATCTTTAGGTAAAAGTTCAGTGAATCCCGAGGAT` , please. label 0

Lookup `ATCTCTAGGTAGGACTCAGTTCAGTGAAGAACGC` label 0

And the next one, `TCTCGGGGGACACGAAAGGTCAGAGCTCGACATC` ? label 1

Do the same for `CGTCAAAGTTCGACTAAGGTAACGTAAAGCACGC` please label 0
